For each of the compounds below, state its growth.
# Tested on: SR leukemia
# Test Details: NCI-60 one-dose screen, 48 h (100 = growth as untreated, 0 = no growth, -100 = all killed)
# Recorded Conditions: 10 µM unless noted
Compounds without any hit were thinned out: in the full panel of roughly 83,000, 20% have a hit.
Value expressed in %; do not type the unit.

Req: growth for CN1/C(=C/C=C/c2n(Cc3ccc4ccccc4c3)c(Cl)c(Cl)[n+]2Cc2ccc3ccccc3c2)Oc2ccccc21 ?
Resp: 95.3

Req: Try this compound too: CNC(=O)c1cc(Oc2ccc3nc(NC(=O)c4cc(C(F)(F)F)cc(C(F)(F)F)c4)sc3c2)ccn1
Resp: 12.5

Req: Likewise for O=C(CN1C(=O)c2ccccc2S1(=O)=O)Nc1nc(-c2cc3ccccc3oc2=O)cs1 ?
Resp: 109

Req: Repeat for the following compound: CC1=C(C(=O)c2ccccc2)C(c2ccc3c(c2)OCO3)NC(=S)N1 (centres undefined)
Resp: 6.28

Req: Note, next up: COc1ccc(NC(=O)c2ccc(NC3=C(c4ccc(Cl)cc4)C(=O)NC3=O)cc2)cc1
Resp: 57.1

Req: // repeat for C=C(C)Cn1c(SCC(=O)c2cccs2)nc2sc3c(c2c1=O)CCCC3 and report
Resp: 44

Req: And for CCOc1ccc(-c2cc(C3(S(=O)(=O)c4ccc(C)cc4)CC=CC3)on2)cc1 ?
Resp: 69.1

Req: Same lookup for O=C(c1ccc(F)cc1)C1CCN(CCn2c(=O)[nH]c3ccccc3c2=O)CC1 , please.
Resp: 99.9

Req: Lookup CCOc1ccccc1NC(=O)CCC(=O)OC
Resp: 97.8

Req: Repeat with COc1ccc(C(=O)C2OC3=C(C(=O)CC(C)(C)C3)C2c2cccc(Oc3ccccc3)c2)cc1 (centres undefined)
Resp: 71.2

Req: Please answer likewise for Cc1csc(Nc2nc(-c3cccc(Cl)c3)nc(C(Cl)(Cl)Cl)n2)n1
Resp: 58.9

Req: # iterate: CC1(C)CC[C@]2(CO)CC[C@]3(C)[C@H](CC[C@@H]4[C@@]5(C)CC[C@H](O)C(C)(C)[C@@H]5CC[C@]43C)[C@H]2[C@H]1O
Resp: 56.2

Req: // query: CCCCCN(CCCCC)CC(O)c1c(Cl)ccc2ccccc12 (centres undefined)
Resp: 32.9

Req: Repeat with Cc1cc2c(C(C)C)c(O)c(O)c(/C=N/O)c2c(O)c1-c1c(C)cc2c(C(C)C)c(O)c(O)c(/C=N/O)c2c1O
Resp: 4.52

Req: Try this compound too: CC1=C(C(=O)OCc2ccccc2)C(c2ccc3c(c2)OCO3)n2c(nc3ccccc32)N1 (centres undefined)
Resp: 9.81

Req: Same read-out for COc1cc(-c2c(-c3ccccc3)c[nH]c2C(=O)NCCCO)c(OC)c2c1OCO2 ?
Resp: 93.9

Req: Next up: COc1ccc(Nc2nccc(Nc3ccc4[nH]ncc4c3)n2)cc1
Resp: 4.38

Req: Also O=C(O)c1cc2ccccc2s1 ?
Resp: 104

Req: Subsequent entry: CC(C)(C)[C@H](OCc1cn([C@H]2C[C@@H](O)[C@@H](CO)O2)c(=O)[nH]c1=O)c1ccc(C#Cc2ccccc2)cc1[N+](=O)[O-]
Resp: 35.7

###

For each record, write down the corresponding growth.
# System: ACHN renal
# Test Details: NCI-60 one-dose screen, 48 h (100 = growth as untreated, 0 = no growth, -100 = all killed)
# Recorded Conditions: 10 µM unless noted
About 83,000 compounds went through this panel and 20% of them were active in at least one assay; those are over-represented in the sample as a whole.
// note: answer is a bare numeric in %

Req: Can you share its growth? I mean this compound: Clc1ccc(C2=Nn3c(nnc3-c3cc(Cl)cc(Cl)c3Cl)SC2)cc1
Resp: 58.2

Req: Proceed to Cc1nn(C)c2ncnc(Nc3ccccc3Br)c12
Resp: 106

Req: Same lookup for CC(C)=CC(=O)C1C(=O)c2ccccc2C1=O , please.
Resp: 97.1

Req: # iterate: COC1=C(OC)C(=O)C(CCCCCCCCCCO)=C(C)C1=O
Resp: 60.5

Req: Then Nc1ncc(-c2ccc3ncnc(N4CCc5cc(F)c(Cl)cc54)c3c2)cc1C=O ?
Resp: 7.1

Req: What about this compound? Cn1cc(-c2csc(-c3cn(C)c4ccc(F)cc34)n2)c2cnccc21
Resp: -89.6

Req: What do you get for COc1ccc(/C=N\NC(=O)c2ccc3nc(-c4ccc(Cl)cc4)[nH]c3c2)cc1 ?
Resp: 21.9

Req: Item: CN1/C(=C/C=C/c2n(Cc3ccc4ccccc4c3)c(Cl)c(Cl)[n+]2Cc2ccc3ccccc3c2)Oc2ccccc21
Resp: -96.6

Req: Next up: COc1cccc(CNc2nnc(C)c(C)n2)c1O
Resp: 110

Req: And N#CC1=C(N)Oc2c(ccc3ccccc23)C1c1cc2ccccc2n2nnnc12 (configuration not stated) ?
Resp: 22.7

Req: Same lookup for Cc1c(CC(=O)Nc2ccccc2)nnn1-c1ccccc1 , please.
Resp: 109

Req: Now give it for C=CC(=O)NCc1cccc(Nc2ncc(Br)c(NCCCNC(=O)C3CCC3)n2)c1 too.
Resp: 7.42

Req: One more compound: CCOC(=O)c1ccc2c(c1)c1c(C)c3cnccc3c(C)c1n2C
Resp: -95

Req: Also check CNc1nc2ncc(-c3c(C)noc3C)cc2n1Cc1ccccc1
Resp: 42.1

Req: Moving on to CCCC1Cc2cc(-n3nc(C)c4c3CC(C)(C)CC4=O)cc(NC3CCC(O)CC3)c2C(=O)N1 (configuration not stated)
Resp: 29.3

Req: Consider next the compound Cc1cc2c(c(C)n1)CN(C(=O)Nc1nc(-c3cncs3)ccc1N)C2 in the same way.
Resp: 106

Req: # repeat for CCC(C)C(N)C(=O)NC(CC(C)C)C(=O)N1CCCC1C(=O)NC(Cc1c[nH]c2ccccc12)C(=O)NC(CCCCN)C(=O)NC(Cc1c[nH]c2ccccc12)C(=O)N1CCCC1C(=O)NC(Cc1c[nH]c2ccccc12)C(=O)NC(Cc1c[nH]c2ccccc12)C(=O)N1CCCC1C(=O)NC(Cc1c[nH]c2ccccc12)C(=O)NC(CCCNC(=N)N)C(=O)NC(CCCNC(=N)N)C(N)=O (configuration not stated)
Resp: 98

Req: Same again, this time with [2H]C([2H])([2H])Oc1ccc(/C=C/C(=O)/C=C(/C=C/c2ccc(OC([2H])([2H])[2H])c(OC([2H])([2H])[2H])c2OC([2H])([2H])[2H])OB(F)F)c(OC([2H])([2H])[2H])c1OC([2H])([2H])[2H]
Resp: 14.4

Req: Likewise for CNC(=O)c1cc(Oc2ccc3nc(NC(=O)Nc4ccc(F)cc4F)sc3c2)ccn1 ?
Resp: 60.6

Req: And for C=C(CNCCO)[C@@H]1CC[C@]2(CO)CC[C@]3(C)[C@H](CC[C@@H]4[C@@]5(C)CCC(NCCO)C(C)(C)[C@@H]5CC[C@]43C)[C@@H]12 (some centres not stated) ?
Resp: 95.9

Req: Queued: COc1cc2nc3cc([N+](=O)[O-])ccc3c(NCCCNCCO)c2cc1OC
Resp: 2.87

Req: What do you get for COc1ccc(NC(=O)CSc2oc(-c3ccccc3)nc2S(=O)(=O)c2ccc(Cl)cc2)c(OC)c1 ?
Resp: 36.6

Req: Note, next up: N#CSCc1cc(Cl)c(CSC#N)cc1Cl
Resp: 45.3

Req: // query: CS(=O)(=O)c1cccc(Nc2ncc3cc(-c4ccccc4Cl)ccc3n2)c1
Resp: 2.93

Req: Now give it for Nc1nc(N)c2c(n1)NC(c1ccc3c(c1)OCO3)CC(c1cccc(Nc3ccncc3)c1)=N2 (configuration not stated) too.
Resp: 110

Req: Next up: C=C1C(=O)O[C@H]2[C@H]1CC/C(CNC(=O)/C=C/c1cc(OC)c(OC)c(OC)c1)=C\CC[C@@]1(C)O[C@@H]21
Resp: -79.6

Req: // query: COc1cccc(C(=O)Nc2cccc(NC(=O)c3ccccn3)c2)c1
Resp: 100

Req: Also need COc1ccc(/C=C2/CCc3cc4ccc(OC)cc4[o+]c32)c(O)c1 , thanks.
Resp: 34.3

Req: Again, but for C=CCNc1nc(O)c(/C=C2\C=Nc3ncccc32)s1
Resp: -1.22

Req: Same read-out for CCN=c1sc2c(n1NC(=O)c1cc3ccc1CCc1ccc(cc1)CC3)C(=O)c1ccccc1C2=O ?
Resp: -90.2

Req: Follow-up entry: COCCn1cc(-c2nc(-c3cc4cccnc4n3C)cs2)c2cc(OC)ccc21
Resp: 64.2

Req: Do the same for CCOC(=O)c1cnc2sc(-c3ccc(OC)cc3)nc2c1Cl please
Resp: 105

Req: Next entry: O=C(Nc1ccccc1CNc1nc(Nc2ccc(OCCN3CCCC3)cc2)ncc1Cl)NC1CCCCC1
Resp: 78.2

Req: Same lookup for O=C(Nc1ncc(Cc2ccccc2)s1)c1ccc2c(c1)OCCO2 , please.
Resp: 27.3

Req: Another compound: O=C(O)c1nn(-c2ccc(Cl)cc2)nc1N1CCCC1
Resp: 99.4

Req: Now consider CCN1C(=O)N(CC)C2C1NN=c1s/c(=C\c3ccc([N+](=O)[O-])cc3)c(=O)n12 (configuration not stated) .
Resp: 41.9

Req: Quick one: O=C(CNc1ncco1)Nc1ccc(S(=O)(=O)c2ccc(NC(=O)CNc3ncco3)cc2)cc1
Resp: 30.5
